# TGI values compiled below
Test system: SW-620 colon
Test: NCI tumour cell line growth inhibition, 48 h

Here is how some molecules turned out for TGI.
c1ccc([P+](Cc2ccc(C[P+](c3ccccc3)(c3ccccc3)c3ccccc3)cc2)(c2ccccc2)c2ccccc2)cc1
> 100 µM
O=C1[C@H]2ON(c3ccccc3)C(c3ccccc3Cl)[C@H]2C(=O)N1c1ccc(Cc2ccc(N3C(=O)[C@@H]4ON(c5ccccc5)C(c5ccccc5Cl)[C@@H]4C3=O)cc2)cc1 (stereo partly specified)
> 100 µM
O=C1C=C2C(=NC34CCCCC3C(c3ccccc3)C3=C(c5ccccc5CC3)N24)c2ccccc21 (stereo unspecified)
> 10 µM
O=C1CC(c2ccc(O)cc2)C2(O1)C(=O)OC(C(O)CO)C2O (stereo unspecified)
> 100 µM

Tell me the measured TGI of `O=[N+]([O-])c1ccc(-c2csc3nc(-c4ccccc4)nn23)cc1` , please.
> 100 µM

// next record `ONc1ncnc2nc[nH]c12`
> 100 µM
